system: F1*sub RNA substrate (template-directed ligation); test: fraction ligated after 30 min (ligated reads / total reads); higher = more ligase activity; details: 42 °C
Exercise: state measured fraction ligated for each of the sequences provided.
Numbers only.

Look over these answered cases.
GAGACCGCAACTGAAAAGTTGTTATCACTTGTCGTAAGACACTTTGATGGGTTGGTTCTGCACGTAGAAGCAAAAGGC [3d2270] | 0.00433
GAGACCGCAACTGAAAAGTTGTTTCACTTGTCGTAAGACACTTTGGATGGGTTGGTTCTGCACGTAGAAGCAAAAGGC [3d507] | 0.00164
GAGACCGCAACTGAAAAGTTGTTATCACTTGTCGTAAGCACTTTGGATGGGTTGGTTCTGCACGTAGAAGCAAAAGGC [3d2151] | 0.116

In the following, a different sequence is considered.
Exam item: Requested read-out fraction ligated, target or system F1*sub RNA substrate (template-directed ligation), entry GAGACCGCAACTGAAAAGTTGTTATCACTTGCGTAAGACACTTTGGATGGGTTGGTTCTGCACGTAGAAGCAAAAGGC [3d1704]
Marked response: 0.0839

====

test system: F1*sub RNA substrate (template-directed ligation); test: fraction ligated after 30 min (ligated reads / total reads); higher = more ligase activity; sequences stand for … in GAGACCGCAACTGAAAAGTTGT…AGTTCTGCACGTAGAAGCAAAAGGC; details: 42 °C
Entry flag: 1.0 if fraction ligated reaches 0.7; 0.0 if it does not.

Recorded results for 8 sequences are shown here.
TACACTTGTCGTAAGACACTTTGGATGGTTGA [2d66] | 0.0
TACACTGTCGTAAGACACTTTGGATGGGTTGA [2d50] | 0.0
TATCACTTGTCGAAGCACTTGGATGGGTTGA [3d1928] | 1.0
TAACTTGCGTAAGACACTTTGGATGGGTTGA [3d511] | 0.0
TATCATTGTCGTAGCACTTTGGATGGGTTGA [3d1216] | 1.0
TTCACTTGTCTAAGCACTTTGGATGGGTTGA [3d405] | 0.0
TATCACTTGTCGTAAGACATTTGATGGGTTA [3d2218] | 0.0
TATCACTTGTCGTAAGCTTTGGATGGGTTGA [3d2105] | 1.0

Exam item: Determine whether this sequence has fraction ligated no lower than 0.7: ATCACTGTCGTAAGACACTTTGGATGGGTTG [3d123]
Marked response: 1.0

Exam item: Next sequence: TTCCTTGTGTAAGACACTTTGGATGGGTTGA [3d301]
Marked response: 1.0

Exam item: Next sequence: TATCACTTGTCGTAAGCACTTTGAGGGTTGA [3d2137]
Marked response: 0.0

Exam item: Next sequence: TACACTTGTCGTAAGCACTTTGGTGGGTTGA [3d687]
Marked response: 0.0

Exam item: Next sequence: TATCATTGTCGAAGACACTTTGGATGGGTTG [3d1213]
Marked response: 1.0

Exam item: Next sequence: TATCCTGTCGTAGACACTTTGGATGGGTTGA [3d955]
Marked response: 1.0

Exam item: Next sequence: TATCACTTGGTAAGACACTTTGGTGGGTTGA [3d1594]
Marked response: 0.0

Exam item: Next sequence: TATCACTTGTCGTAAGCACTTTGGATGGGTT [3d2150]
Marked response: 0.0

Exam item: Next sequence: TATCATTGTCGTAAGACACTTTGGATGGGTT [3d1291]
Marked response: 0.0

Exam item: Next sequence: TATCACTTGTCTAAGCACTTTGGAGGGTTGA [3d1852]
Marked response: 0.0

====

test system: F1*sub RNA substrate (template-directed ligation); experiment: fraction ligated after 30 min (ligated reads / total reads); higher = more ligase activity; sequences stand for … in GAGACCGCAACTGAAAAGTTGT…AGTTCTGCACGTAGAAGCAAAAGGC; conditions: 42 °C
Exercise: state measured fraction ligated for each of the sequences provided.
Give bare numbers.

Look over these answered cases.
ATCACTGTCGTAAGACACTTGGATGGGTTGA [3d117] | 0.743
TATCACTTGTCGTAAGACACTTTGATGGTTA [3d2267] | 0.00859
TAACTTTCGTAAGACACTTTGGATGGGTTGA [3d510] | 0.0478
TATCCTTGCGTAGACACTTTGGATGGGTTGA [3d987] | 0.799
TATACTTGTCGTAAGACATTTGGATGGGTTG [3d924] | 0.714

Hello, I would appreciate it if you could give fraction ligated for each entry below.
1. TATACTTGTCGTAAGCCTTTGGATGGGTTGA [3d894]
2. TATCCTTGTCGTAAGCACTTGGATGGGTTGA [3d1068]
3. ATCACTGCGTAAGACACTTTGGATGGGTTGA [3d107]
4. TATCACTTGTGTAGACACTTTGGATGGTTGA [3d1741]

Marked response:
0.68
0.685
0.818
0.252

Hello, I would appreciate it if you could give fraction ligated for each entry below.
1. TATCACTTGTCGTAACACTTTGGATGGGTTA [3d2001]
2. ACACTTGTCGTAGACACTTTGGATGGGTTGA [3d33]

Marked response:
0.545
0.552

====

system: F1*sub RNA substrate (template-directed ligation); test: fraction ligated after 30 min (ligated reads / total reads); higher = more ligase activity; sequences stand for … in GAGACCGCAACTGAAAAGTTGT…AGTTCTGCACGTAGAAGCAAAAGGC; conditions: 42 °C
property measured: fraction ligated

TATCACTTGTCGTAAGAACTTTGGATGGGTT [3d2181] | 0.219
ATCATTGTGTAAGACACTTTGGATGGGTTGA [3d89] | 0.79
ATCACTGTCGTAAGACATTTGGATGGGTTGA [3d116] | 0.719
TTCATTGTCGTAAGACACTTTGATGGGTTGA [3d330] | 0.505
TATCACTTGTCGTAAGAACTTTGGAGGGTTG [3d2178] | 0.0318

In the following, a different sequence is considered.
Exam item: Name the recorded fraction ligated for TATCCTTGTCGTAAGACTTTGGATGGGTTGA [3d1065] .
Marked response: 0.76

====

system: F1*subA RNA substrate (template-directed ligation); experiment: fraction ligated after 30 min (ligated reads / total reads); higher = more ligase activity; sequences stand for … in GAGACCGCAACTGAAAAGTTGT…TTTCTGCACGTAGAAGCAAAAGGC; details: 42 °C, parent ribozyme: minF1
property measured: fraction ligated
Numbers only.

Look over these answered cases.
ATCAGAAATGGATGGGTT [4d310] | 0.0014
TATCAGAAATGGTGGGTTG [3d372] | 0.000922
TATCAGAAAGGATGGGTT [4d1070] | 0.00116
TATCAGAAATGGATGGGTT [s45 (=3d379)] | 0.00181

Hello, I would appreciate it if you could give fraction ligated for each entry below.
1. ATCAGAAATGGATGGTTG [4d309]
2. TATCAGAAATGATGGTTG [4d1092]
3. TATCAGAAATGGAGGGTTG [3d376]
4. TATCAGAAATGGATGGTTG [3d378]
5. TATCAGAAATGGATGGTTA [3d377]
6. TATCAGAATGGATGGGTT [4d1042]
7. TATCAGAATGGATGGTTG [4d1041]
8. TATCAGAAATGATGGGTT [4d1093]

Marked response:
1: 0.000441; 2: 0.00043; 3: 0.00056; 4: 0.00121; 5: 0.00122; 6: 0.00126; 7: 0.00128; 8: 0

Hello, I would appreciate it if you could give fraction ligated for each entry below.
1. TATCAGAAAGGATGGTTG [4d1069]
2. TATCAGAAATGATGGGTTG [3d366]
3. TATCAGAAATGGATGGGTT [3d379]

Marked response:
1. 0.000981
2. 0.000941
3. 0.00181

====

system: F1*sub RNA substrate (template-directed ligation); assay: fraction ligated after 30 min (ligated reads / total reads); higher = more ligase activity; sequences stand for … in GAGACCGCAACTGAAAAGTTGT…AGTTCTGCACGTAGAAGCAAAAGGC; settings: 42 °C
Exercise: state measured fraction ligated for each of the sequences provided.
Numbers only.

Look over these answered cases.
TATCACTTGTCTAAGACACTTTGGATGGGTTG [2d207] | 0.825
TATCACTTGTCGTGACACTTTGGATGGTTGA [3d1990] | 0.0934
ATCACTTGTGTAAGACCTTTGGATGGGTTGA [3d162] | 0.811

Hello, I would appreciate it if you could give fraction ligated for each entry below.
1. TTCACTTGTCGAAACACTTTGGATGGGTTGA [3d417]
2. TATCACTTGTCGTAAGACACTTGGAGGGTTGA [2d279]
3. TATCTTGTCGTAAGACATTTGGATGGGTTGA [3d750]

Marked response:
1: 0.0407; 2: 0.0154; 3: 0.806
